These data points were gathered from ChEMBL document CHEMBL1201862.

# tgt: Corticotropin-releasing factor receptor 2/Corticotropin-releasing factor-binding protein (Homo sapiens, UniProt P24387+Q13324)
# Sequence (Q13324 whole entry): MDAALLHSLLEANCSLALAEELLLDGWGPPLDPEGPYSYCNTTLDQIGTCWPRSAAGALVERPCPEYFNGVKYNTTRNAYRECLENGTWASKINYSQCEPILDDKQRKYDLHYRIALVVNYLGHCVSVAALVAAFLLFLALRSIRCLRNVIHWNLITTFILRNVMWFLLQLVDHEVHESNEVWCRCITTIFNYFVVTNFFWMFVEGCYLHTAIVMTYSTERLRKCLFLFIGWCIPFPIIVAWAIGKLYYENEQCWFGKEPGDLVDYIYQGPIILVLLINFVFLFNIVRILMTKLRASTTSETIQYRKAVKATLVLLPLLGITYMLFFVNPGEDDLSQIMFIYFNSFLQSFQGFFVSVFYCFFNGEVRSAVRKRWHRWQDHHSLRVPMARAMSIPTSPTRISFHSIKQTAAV
# Sequence (P24387 whole entry): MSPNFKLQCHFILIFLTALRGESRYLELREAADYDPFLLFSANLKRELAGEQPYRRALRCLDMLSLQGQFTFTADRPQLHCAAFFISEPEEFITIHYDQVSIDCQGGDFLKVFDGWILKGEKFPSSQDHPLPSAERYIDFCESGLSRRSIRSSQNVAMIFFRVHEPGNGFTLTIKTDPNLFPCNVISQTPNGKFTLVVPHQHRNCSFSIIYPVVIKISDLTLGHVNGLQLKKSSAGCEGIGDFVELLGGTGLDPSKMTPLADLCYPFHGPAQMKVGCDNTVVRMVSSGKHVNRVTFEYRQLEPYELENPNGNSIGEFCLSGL
# method description: Dose Response confirmation of uHTS hits for small molecule antagonists of the CRF-binding protein and CRF-R2 receptor complex.
# Type: functional
# experimental context: read-out: IC50_Mean
The source made the active and inactive calls.
Form entry, call: pick from 1 (yes) = active, 0 (no) = inactive

# input Please share the test call associated with `CCc1ccc2[nH]c(C(=O)Nc3ccc4c(c3)OCO4)cc2c1` .
# output 0 (no)

# input How was CC(C)C(Sc1nc(-c2ccccc2)cc(-c2ccccc2)c1C#N)C(=O)O (stereo unspecified) classified in this test?
# output 1 (yes)

# input // param item: COc1ccc(C(=O)N(c2ccccc2)C2C=CS(=O)(=O)C2)cc1 (stereo unspecified) ; yields the recorded call
# output 0 (no)

# input Called result for O=C1NCCCCC1NS(=O)(=O)c1cccc2ccccc12 (stereo unspecified)
# output 0 (no)

# input Outcome? `Cc1[nH]c2nc(SCC(=O)c3cccc([N+](=O)[O-])c3)nc-2cc1Br`
# output 1 (yes)

# input Write down the call the test reported for this molecule. Item: `CCN(CC)C(=O)[C@H]1C[C@H](CC(=O)NC/C=C(\C)CCC=C(C)C)C(=O)N2CCc3c([nH]c4ccc(Cl)cc34)[C@]12C`
# output 1 (yes)

* * *

Exercise: for every item that follows, state its recorded EC50.
# method description: cells
# Type: functional, cell-based
The source made the active and inactive calls.

# input EC50 for `O=C1NC(=O)/C(=C/c2ccc(OS(=O)(=O)c3ccc(F)cc3F)cc2)N1` ?
# output > 350 µM (not active)

# input Fill in the blank: the reported EC50 of `CC(C)N(c1ccccc1)c1ncnc(NCCC(=O)O)c1[N+](=O)[O-]` is ____.
# output > 350 µM (not active)

# input Could you tell me which EC50 is on file for `CN(CC(=O)Nc1ccccc1Oc1ccccc1)Cc1ccccc1F` ?
# output > 350 µM (not active)

# input Would you kindly share the measured EC50 for `Cc1noc(C(=O)Nc2sc3c(c2C#N)CCC3)c1Cl` ?
# output 57 µM (active)
